# experimental.target: T1, ECF04_1609
# T1 chain: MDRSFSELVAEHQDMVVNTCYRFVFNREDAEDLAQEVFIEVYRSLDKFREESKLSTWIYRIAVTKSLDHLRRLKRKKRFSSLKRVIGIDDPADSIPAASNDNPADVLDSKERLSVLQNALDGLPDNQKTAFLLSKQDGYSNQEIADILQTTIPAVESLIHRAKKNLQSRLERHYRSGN
value.type: fold repression
// no unit, no text: just the number

Incoming: Tell me measured fold repression for AS33_423 (protein) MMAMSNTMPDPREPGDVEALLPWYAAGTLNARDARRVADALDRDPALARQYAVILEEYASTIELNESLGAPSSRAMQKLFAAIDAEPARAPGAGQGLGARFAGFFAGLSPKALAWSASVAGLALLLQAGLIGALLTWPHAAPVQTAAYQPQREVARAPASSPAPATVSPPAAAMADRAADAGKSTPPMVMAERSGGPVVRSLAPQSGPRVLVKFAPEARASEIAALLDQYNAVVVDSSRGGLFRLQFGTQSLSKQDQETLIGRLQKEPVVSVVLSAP please.
Outgoing: 6.18

Recorded values, source paper PMC3817407.
